test system: Mus musculus; assay: In vivo Mean survival time of Plasmodium berghei parasitized mice dosed at 640 mg/kg; type: functional
TEST READOUT: T-C

Would you please look over these solved cases?
COc1ccc2c(OC)c3[n+](cc2c1OC)CCc1cc2c(cc1-3)OCO2
0.2 days
COc1ccc2c(c1OC)CN1CCc3cc4c(cc3[C@@H]1C2)OCO4
0.3 days
COc1ccc2cc3n(c(=O)c2c1OC)CCc1cc2c(cc1-3)OCO2
0.3 days

With those in mind, consider the next compound.
What does the data say about its T-C? Entry: COc1ccc2c(c1OC)C[N+]1([O-])CCc3cc4c(cc3C1C2)OCO4 (centres undefined)
0 days

---

tested on: Mus musculus; experiment: In vivo Mean survival time of Plasmodium berghei parasitized mice dosed at 160 mg/kg; format: functional
This section presents compounds with their documented T-C values.
Please reply with the bare figure in days and do not write the unit itself.

Worked examples follow.
COc1ccc2c(c1OC)C[N+]1([O-])CCc3cc4c(cc3C1C2)OCO4 (stereo not given)
0.2
COc1ccc2cc3n(c(=O)c2c1OC)CCc1cc2c(cc1-3)OCO2
0.5

Name the reported T-C value associated with the compound COc1ccc2cc3[n+](cc2c1OC)CCc1cc2c(cc1-3)OCO2.[Cl-] [BERBERINE CHLORIDE]
1

Which T-C value is on record for COc1ccc2c(c1OC)CN1CCc3cc4c(cc3[C@@H]1C2)OCO4 ?
0.1

T-C for COc1ccc2c(OC)c3[n+](cc2c1OC)CCc1cc2c(cc1-3)OCO2 ?
-0.2
